viability, T/C reference
system: 624824-186-R-J2-PDC multicell spheroids, viability; assay: Anticancer human tumor 624824-186-R-J2-PDC patient-derived colon adenocarcinoma cell line growth inhibition [PI3K]; details: second compound 1 µM; first compound 3.16 µM; stronger effect = lower value

CNC(=O)c1ccc(N2C(=S)N(c3ccc(C#N)c(C(F)(F)F)c3)C(=O)C2(C)C)cc1F + CC(Nc1ncnc2nc[nH]c12)c1cc2cccc(Cl)c2c(=O)n1-c1ccccc1: 122%
CC(C)NCC(C(=O)N1CCN(c2ncnc3c2C(C)CC3O)CC1)c1ccc(Cl)cc1 (stereo not given) + CC(Nc1ccc2c(c1)OCCn1cc(N3C(=O)OCC3C(F)F)nc1-2)C(N)=O: 96.4%

Ask | So what does the record say about viability, T/C for Cn1ncc(Cl)c1-c1cc(C(=O)NC(CN)Cc2cccc(F)c2)sc1Cl (stereo not given) + CC(Nc1ncnc2nc[nH]c12)c1cc2cccc(Cl)c2c(=O)n1-c1ccccc1 ?
Reply | 62.3%

Ask | Look up viability, T/C: CCCS(=O)(=O)Nc1ccc(F)c(C(=O)c2c[nH]c3ncc(-c4ccc(Cl)cc4)cc23)c1F + CC(Nc1ccc2c(c1)OCCn1cc(N3C(=O)OCC3C(F)F)nc1-2)C(N)=O
Reply | 63.1%

Ask | Find the recorded viability, T/C belonging to C=CC(=O)N1CCN(c2nc(=O)n(-c3c(C)ccnc3C(C)C)c3nc(-c4c(O)cccc4F)c(F)cc23)C(C)C1 (stereo not given) + CC(Nc1ncnc2nc[nH]c12)c1cc2cccc(Cl)c2c(=O)n1-c1ccccc1 and report it.
Reply | 77.3%

====

system: 624824-186-R-J2-PDC multicell spheroids, viability; test: Anticancer human tumor 624824-186-R-J2-PDC cell line growth inhibition [PI3K]; conditions: second compound 0.01 µM; first compound 0.316 µM; stronger effect = lower value;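 also: spheroids exposed to agents for 7 days before viability read; 100% = DMSO vehicle treated spheroids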
Readout: viability, T/C

Below: 5 molecules and their reported viability, T/C.
C=CC(=O)N1CCN(c2nc(=O)n(-c3c(C)ccnc3C(C)C)c3nc(-c4c(O)cccc4F)c(F)cc23)C(C)C1 (stereo not given) + COc1c(OCCCN2CCOCC2)ccc2c3n(c(=NC(=O)c4cnc(N)nc4)nc12)CCN3: 101%
CC1(C)CCC(Nc2ncc(C(F)(F)F)c(-c3c[nH]c4c(P(C)(C)=O)c(C#N)ccc34)n2)CN1 (stereo not given) + CC(Nc1ccc2c(c1)OCCn1cc(N3C(=O)OCC3C(F)F)nc1-2)C(N)=O: 85%
C=CC(=O)N1CCN(c2nc(=O)n(-c3c(C)ccnc3C(C)C)c3nc(-c4c(O)cccc4F)c(F)cc23)C(C)C1 (stereo not given) + CC(Nc1ccc2c(c1)OCCn1cc(N3C(=O)OCC3C(F)F)nc1-2)C(N)=O: 88.3%
CC1(C)CCC(CN2CCN(c3ccc(C(=O)NS(=O)(=O)c4ccc(NCC5CCOCC5)c([N+](=O)[O-])c4)c(Oc4cnc5[nH]ccc5c4)c3)CC2)=C(c2ccc(Cl)cc2)C1 + COc1c(OCCCN2CCOCC2)ccc2c3n(c(=NC(=O)c4cnc(N)nc4)nc12)CCN3: 83.1%
Cn1nccc1Nc1nccc(-c2ccn(C(CO)c3ccc(Cl)c(F)c3)c(=O)c2)n1 (stereo not given) + CC(Nc1ccc2c(c1)OCCn1cc(N3C(=O)OCC3C(F)F)nc1-2)C(N)=O: 77.6%

Ask | May I ask what viability, T/C has been recorded for CC(Cn1ccc(-c2ccc(C#N)c(Cl)c2)n1)NC(=O)c1cc(C(C)O)[nH]n1 (stereo not given) + COc1c(OCCCN2CCOCC2)ccc2c3n(c(=NC(=O)c4cnc(N)nc4)nc12)CCN3 ?
Reply | 98%

Ask | If you can, please state the reported viability, T/C value of C[C@@H](NC(=O)c1ncnc(N)c1Cl)c1ncc(C(=O)Nc2cc(C(F)(F)F)c(Cl)cn2)s1 + CC(Nc1ccc2c(c1)OCCn1cc(N3C(=O)OCC3C(F)F)nc1-2)C(N)=O .
Reply | 80.7%

====

# viability, T/C values compiled below
Test system: 624824-186-R-J2-PDC multicell spheroids, viability
Assay: Anticancer human tumor 624824-186-R-J2-PDC cell line growth inhibition [PI3K];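 also: spheroids exposed to agents for 7 days before viability read; 100% = DMSO vehicle treated spheroids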
Conditions: second compound 3.16 µM; first compound 0.01 µM; stronger effect = lower value
Source text: Combinatorial screen of targeted agents with the PI3K inhibitors inavolisib, alpelisib, duvelisib, and copanlisib in multi-cell type tumor spheroids A high-throughput screen of multi-cell type tumor spheroids was designed to identify active combinations of targeted small molecules and PI3K pathway inhibitors. […] Compounds. […] If the clinical Cmax for an agent had not been determined, the highest concentration tested was 10 microM. […]
Provide only the numeric value, understood in %.

Sample records with viability, T/C:
CCN1CCN(Cc2ccc(Nc3ncc(F)c(-c4cc(F)c5nc(C)n(C(C)C)c5c4)n3)nc2)CC1 + Cc1nc(NC(=O)N2CCCC2C(N)=O)sc1-c1ccnc(C(C)(C)C(F)(F)F)c1: 93
CC(=O)c1c(C)c2cnc(Nc3ccc(N4CCNCC4)cn3)nc2n(C2CCCC2)c1=O + Cc1nc(NC(=O)N2CCCC2C(N)=O)sc1-c1ccnc(C(C)(C)C(F)(F)F)c1: 80.7
CC(C)n1nc(-c2ccc3oc(N)nc3c2)c2c(N)ncnc21 + CC(Nc1ncnc2nc[nH]c12)c1cc2cccc(Cl)c2c(=O)n1-c1ccccc1: 90.5
CCN1CCN(Cc2ccc(Nc3ncc(F)c(-c4cc(F)c5nc(C)n(C(C)C)c5c4)n3)nc2)CC1 + CC(Nc1ncnc2nc[nH]c12)c1cc2cccc(Cl)c2c(=O)n1-c1ccccc1: 86.5
CC(C)n1nc(-c2ccc3oc(N)nc3c2)c2c(N)ncnc21 + Cc1nc(NC(=O)N2CCCC2C(N)=O)sc1-c1ccnc(C(C)(C)C(F)(F)F)c1: 65.9

Ask | Lab request: please report viability, T/C under test system 624824-186-R-J2-PDC multicell spheroids, viability for Cn1ncnc1[C@H]1c2n[nH]c(=O)c3cc(F)cc(c23)N[C@@H]1c1ccc(F)cc1 + CC(Nc1ncnc2nc[nH]c12)c1cc2cccc(Cl)c2c(=O)n1-c1ccccc1
Reply | 92.1

Ask | Hello, I am looking for reported viability, T/C with 624824-186-R-J2-PDC multicell spheroids, viability for Cn1ncnc1[C@H]1c2n[nH]c(=O)c3cc(F)cc(c23)N[C@@H]1c1ccc(F)cc1 + Cc1nc(NC(=O)N2CCCC2C(N)=O)sc1-c1ccnc(C(C)(C)C(F)(F)F)c1 . Could you help?
Reply | 82.9

Ask | Return viability, T/C measured with 624824-186-R-J2-PDC multicell spheroids, viability given this compound: CC(=O)c1c(C)c2cnc(Nc3ccc(N4CCNCC4)cn3)nc2n(C2CCCC2)c1=O + CC(Nc1ncnc2nc[nH]c12)c1cc2cccc(Cl)c2c(=O)n1-c1ccccc1
Reply | 111

====

tested on: 624824-186-R-J2-PDC multicell spheroids, viability; experiment: Anticancer human tumor 624824-186-R-J2-PDC cell line growth inhibition [PI3K]; settings: second compound 0.1 µM; first compound 3.16 µM; stronger effect = lower value;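 also: spheroids exposed to agents for 7 days before viability read; 100% = DMSO vehicle treated spheroids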
# strict inequality: viability, T/C < 80% yields met, everything else yields not met

Observe how each entry below is paired with its result.
Cn1ncc(Cl)c1-c1cc(C(=O)NC(CN)Cc2cccc(F)c2)sc1Cl (stereo unspecified) + CC(Nc1ccc2c(c1)OCCn1cc(N3C(=O)OCC3C(F)F)nc1-2)C(N)=O: met
C=CC(=O)N1CCN(c2nc(=O)n(-c3c(C)ccnc3C(C)C)c3nc(-c4c(O)cccc4F)c(F)cc23)C(C)C1 (stereo unspecified) + COc1c(OCCCN2CCOCC2)ccc2c3n(c(=NC(=O)c4cnc(N)nc4)nc12)CCN3: met

Ask | Input CC(C)NCC(C(=O)N1CCN(c2ncnc3c2C(C)CC3O)CC1)c1ccc(Cl)cc1 (stereo unspecified) + Cc1nc(NC(=O)N2CCCC2C(N)=O)sc1-c1ccnc(C(C)(C)C(F)(F)F)c1 ; condition: viability, T/C strictly below 80%. Does it hold?
Reply | met

Ask | Below 80% on viability, T/C? Entry Cn1nccc1Nc1nccc(-c2ccn(C(CO)c3ccc(Cl)c(F)c3)c(=O)c2)n1 (stereo unspecified) + CC(Nc1ncnc2nc[nH]c12)c1cc2cccc(Cl)c2c(=O)n1-c1ccccc1
Reply | not met

Ask | Does this molecule meet the criterion viability, T/C < 80%? Cn1ncc(Cl)c1-c1cc(C(=O)NC(CN)Cc2cccc(F)c2)sc1Cl (stereo unspecified) + COc1c(OCCCN2CCOCC2)ccc2c3n(c(=NC(=O)c4cnc(N)nc4)nc12)CCN3
Reply | met

====

test system: 624824-186-R-J2-PDC multicell spheroids, viability; experiment: Anticancer human tumor 624824-186-R-J2-PDC cell line growth inhibition [PI3K]; settings: second compound 0.1 µM; first compound 0.316 µM; stronger effect = lower value;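 also: spheroids exposed to agents for 7 days before viability read; 100% = DMSO vehicle treated spheroids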
I'd appreciate it if you marked entries Y when viability, T/C is lower than 70% and N when it is not.

// below: answered compounds
Cn1nccc1Nc1nccc(-c2ccn(C(CO)c3ccc(Cl)c(F)c3)c(=O)c2)n1 (stereo not given) + Cc1nc(NC(=O)N2CCCC2C(N)=O)sc1-c1ccnc(C(C)(C)C(F)(F)F)c1: N
CC1(C)CCC(CN2CCN(c3ccc(C(=O)NS(=O)(=O)c4ccc(NCC5CCOCC5)c([N+](=O)[O-])c4)c(Oc4cnc5[nH]ccc5c4)c3)CC2)=C(c2ccc(Cl)cc2)C1 + COc1c(OCCCN2CCOCC2)ccc2c3n(c(=NC(=O)c4cnc(N)nc4)nc12)CCN3: N
CNC(=O)c1ccc(N2C(=S)N(c3ccc(C#N)c(C(F)(F)F)c3)C(=O)C2(C)C)cc1F + CC(Nc1ncnc2nc[nH]c12)c1cc2cccc(Cl)c2c(=O)n1-c1ccccc1: N
C#Cc1c(F)ccc2cc(O)cc(-c3ncc4c(N5CC6CCC(C5)N6)nc(OCC56CCCN5CC(F)C6)nc4c3F)c12 (stereo not given) + COc1c(OCCCN2CCOCC2)ccc2c3n(c(=NC(=O)c4cnc(N)nc4)nc12)CCN3: Y
CNC(=O)c1ccc(N2C(=S)N(c3ccc(C#N)c(C(F)(F)F)c3)C(=O)C2(C)C)cc1F + Cc1nc(NC(=O)N2CCCC2C(N)=O)sc1-c1ccnc(C(C)(C)C(F)(F)F)c1: N

Next item in the queue.
Ask | Please indicate whether the reported viability, T/C of CNC(=O)c1ccc(N2C(=S)N(c3ccc(C#N)c(C(F)(F)F)c3)C(=O)C2(C)C)cc1F + COc1c(OCCCN2CCOCC2)ccc2c3n(c(=NC(=O)c4cnc(N)nc4)nc12)CCN3 is strictly below 70%.
Reply | N
